# assay.details: Biodistribution in BALB/c nu/nu mice bearing PC-3 xenografts
# Format: in vivo
# protocol.conditions: female, BALB/c nu/nu, mouse, gastrointestinal tract, iv, 50 pmol, total radioactivity; 2 h p.i., i.v.; read-out: Radionuclide quantity, Gastrointestinal tract
Starred links: 1 amine or outer side, 2 acyl side, 3 side chain; linkers in the order of their positions; H or OH if unused. Non-standard residues stand in square brackets, D forms with d. Residues, ends and D or L forms follow the SMILES beside them. *: point of attachment. NOTA = O=C(O)CN1CCN(CC(=O)O)CCN(CC(=O)*)CC1; Sta = CC(C)C[C@H](N)[C@@H](O)CC(=O)O; X2 = O=C(COc1cccc(CN[*:1])c1)[*:2]; X1 = O=C(Cc1ccccc1CCN[*:1])[*:2]; X3 = O=C(COc1ccccc1CN[*:1])[*:2]
// values below are reported tissue uptake dose at 2 h

molecule	endpoint.unit	tissue uptake dose at 2 h
CC(=O)N[C@@H](CCCCNC(=O)CN1CCN(CC(=O)O)CCN(CC(=O)O)CC1)C(=O)NCCc1ccccc1CC(=O)N[C@H](Cc1ccccc1)C(=O)N[C@@H](CCC(N)=O)C(=O)N[C@@H](Cc1c[nH]c2ccccc12)C(=O)N[C@@H](C)C(=O)N[C@H](C(=O)NCC(=O)N[C@@H](Cc1c[nH]cn1)C(=O)N[C@@H](CC(C)C)[C@@H](O)CC(=O)N[C@@H](CC(C)C)C(N)=O)C(C)C [[^68Ga]Ga-NOTA-oET-RM26, metal not drawn] (Ac-K(NOTA)[X1][dF]QWAVGH[Sta]L-NH2)	%ID	5.9
CC(=O)N[C@@H](CCCCNC(=O)CN1CCN(CC(=O)O)CCN(CC(=O)O)CC1)C(=O)NCc1cccc(OCC(=O)N[C@H](Cc2ccccc2)C(=O)N[C@@H](CCC(N)=O)C(=O)N[C@@H](Cc2c[nH]c3ccccc23)C(=O)N[C@@H](C)C(=O)N[C@H](C(=O)NCC(=O)N[C@@H](Cc2c[nH]cn2)C(=O)N[C@@H](CC(C)C)[C@@H](O)CC(=O)N[C@@H](CC(C)C)C(N)=O)C(C)C)c1 [[^68Ga]Ga-NOTA-mMA-RM26, metal not drawn] (Ac-K(NOTA)[X2][dF]QWAVGH[Sta]L-NH2)	%ID	4
CC(=O)N[C@@H](CCCCNC(=O)CN1CCN(CC(=O)O)CCN(CC(=O)O)CC1)C(=O)NCc1ccccc1OCC(=O)N[C@H](Cc1ccccc1)C(=O)N[C@@H](CCC(N)=O)C(=O)N[C@@H](Cc1c[nH]c2ccccc12)C(=O)N[C@@H](C)C(=O)N[C@H](C(=O)NCC(=O)N[C@@H](Cc1c[nH]cn1)C(=O)N[C@@H](CC(C)C)[C@@H](O)CC(=O)N[C@@H](CC(C)C)C(N)=O)C(C)C [[^68Ga]Ga-NOTA-oMA-RM26, metal not drawn] (Ac-K(NOTA)[X3][dF]QWAVGH[Sta]L-NH2)	%ID	6.5
